# assay overview: Dye solubility in deionised water (spectroscopic determination in filtered solution)
# Assay type: physicochemical
# protocol conditions: deionised water; stirred 1 hour at 50° C, cooled to 20° C, filtered
quantity kind: Solubility

Examples from the recorded data:
>>> recorded_measurement("Nc1ccc2cc(S(=O)(=O)O)cc(O)c2c1N=Nc1ccc(Nc2nc(SCCCS(=O)(=O)O)nc(N(CCO)CCO)n2)cc1S(=O)(=O)O")
"38 g per 100 ml"
>>> recorded_measurement("CCOc1nc(Nc2cc(C)c(N=Nc3cc(S(=O)(=O)O)c4cccc(S(=O)(=O)O)c4c3)cc2OC)nc(SCCCS(=O)(=O)O)n1")
"32 g per 100 ml"

Now look at this entry.
IN: Given the entry COc1cc(N=Nc2cc(S(=O)(=O)O)c3cccc(S(=O)(=O)O)c3c2)c(C)cc1Nc1nc(SCCCS(=O)(=O)O)nc(SCCCS(=O)(=O)O)n1 , report its measured Solubility.
OUT: 34 g per 100 ml
